Reported % Renin Inhibition values for a set of compounds
- SYSTEM TESTED: human kidney renin (Homo sapiens)
- Construct: Human renin was prepared from human kidney; from tissue; host or cells: human kidney
- TEST METHOD NOTES: Radioimmunoassay screen for renin inhibitors (angiotensin I generation, then quantitation by radioimmunoassay)
- Type: biochemical
- MEASUREMENT CONDITIONS: Molar Concentration 1 × 10^-4
OUTCOME MEASURE: % Renin Inhibition (%)

>>> number("CC(C)CO[C@H](NC(=O)[C@H](Cc1ccccc1)NC(=O)OCc1ccccc1)C(=O)N[C@@H](Cc1ccccc1)[C@@H](O)c1nccs1")
85.0
>>> number("CC(C)C[C@H](NC(=O)C(NC(=O)[C@H](Cc1ccccc1)NC(=O)OCc1ccccc1)SC(C)C)[C@@H](O)c1nccs1 (stereo partly drawn)")
25
>>> number("CC(C)CO[C@@H](NC(=O)[C@H](Cc1ccccc1)NC(=O)OCc1ccccc1)C(=O)N[C@@H](Cc1ccccc1)[C@@H](O)c1nccs1")
74.6
>>> number("CC(C)COC(NC(=O)[C@H](Cc1ccccc1)NC(=O)OCc1ccccc1)C(=O)N[C@@H](CC(C)C)[C@@H](O)c1ncnn1C (stereo partly drawn)")
32
>>> number("CC(C)COC(NC(=O)[C@H](Cc1ccccc1)NC(=O)OCc1ccccc1)C(=O)N[C@H](C=O)Cc1ccccc1 (stereo partly drawn)")
66
>>> number("CC(C)CO[C@H](NC(=O)[C@H](Cc1ccccc1)NC(=O)OCc1ccccc1)C(=O)N[C@H](C=O)CC(C)C")
70

* * *

- SYSTEM TESTED: human kidney renin (Homo sapiens, UniProt P00797)
- Construct: Human renin was prepared from human kidney
- TEST METHOD NOTES: Radioimmunoassay screen for renin inhibitors (angiotensin I generation, then quantitation by radioimmunoassay)
- MEASUREMENT CONDITIONS: human kidney renin, purified human plasma angiotensinogen, maleate buffer pH 6.0, 1 hour at 37° C.; read-out: IC50 Molar Concentration
OUTCOME MEASURE: IC50 (µM)

>>> number("CC(C)COC(NC(=O)[C@H](Cc1ccccc1)NC(=O)OCc1ccccc1)C(=O)N[C@@H](CC1CCCCC1)[C@@H](O)c1nccs1 (stereo partly drawn) [N-[Phenylmethoxy)carbonyl]-L-phenylalanyl-D-2-(2-methylpropo]")
11
>>> number("CC(C)OC(NC(=O)[C@H](Cc1ccccc1)NC(=O)OCc1ccccc1)C(=O)N[C@@H](CC1CCCCC1)[C@@H](O)c1nccs1 (stereo partly drawn) [N-[N-(Phenylmethoxy)carbonyl-L-phenylalanyl-L-2-(1-methyleth]")
0.001
>>> number("CC(C)SC(NC(=O)[C@H](Cc1ccccc1)NC(=O)OCc1ccccc1)C(=O)N[C@@H](CC1CCCCC1)[C@@H](O)c1ccccn1 (stereo partly drawn) [N-[N-(Phenylmethoxy)carbonyl-L-phenylalanyl-L-2-(isopropylth]")
0.046
>>> number("CC(C)SC(NC(=O)[C@H](Cc1ccccc1)NC(=O)OCc1ccccc1)C(=O)N[C@@H](CC1CCCCC1)[C@@H](O)c1ccccn1 (stereo partly drawn) [N-[N-(phenylmethoxy)carbonyl-L-phenylalanyl-D-2-(isopropylth]")
16
>>> number("CC(C)COC(NC(=O)OCc1ccccc1)C(=O)N[C@@H](CC1CCCCC1)[C@@H](O)c1ccccn1 (some centres unmarked)")
0.16
>>> number("CC(C)C[C@H](NC(=O)C(NC(=O)[C@H](Cc1ccccc1)NC(=O)OCc1ccccc1)OC1CCCCC1)[C@@H](O)c1nccs1 (some centres unmarked)")
8.5
>>> number("CC(C)CO[C@H](NC(=O)[C@H](Cc1ccccc1)NC(=O)OCc1ccccc1)C(=O)N[C@@H](Cc1ccccc1)[C@@H](O)c1nccs1")
0.47
>>> number("CC(C)C[C@@H](C=O)NC(=O)C(NC(=O)[C@H](Cc1ccccc1)NC(=O)OCc1ccccc1)OC(C)C (some centres unmarked)")
10
>>> number("CC(C)OC(NC(=O)[C@H](Cc1ccccc1)NC(=O)OCc1ccccc1)C(=O)N[C@@H](CC1CCCCC1)[C@@H](O)c1nccs1 (stereo partly drawn) [N-[N-(Phenylmethoxy)carbonyl-L-phenylalanyl-D-2-(1-methyleth]")
8.8
>>> number("CC(C)C[C@H](NC(=O)[C@H](Cc1ccccc1)NC(=O)OC(C)(C)C)C(=O)N[C@@H](CC(C)C)[C@@H](O)c1cccs1")
4.5
>>> number("CC(C)C[C@H](NC(=O)[C@H](Cc1ccccc1)NC(=O)OC(C)(C)C)C(=O)N[C@@H](CC1CCCCC1)[C@@H](O)c1ccco1")
0.024

* * *

// values below are reported IC50
- SYSTEM TESTED: human kidney renin (Homo sapiens, UniProt P00797)
- Construct: Human renin was prepared from human kidney
- TEST METHOD NOTES: Radioimmunoassay screen for renin inhibitors (angiotensin I generation, then quantitation by radioimmunoassay)
- MEASUREMENT CONDITIONS: human kidney renin, purified human plasma angiotensinogen, maleate buffer pH 6.0, 1 hour at 37° C.; read-out: IC50 Molar Concentration
OUTCOME MEASURE: IC50 (nM)

>>> number("CC(C)C[C@H](NC(=O)C(NC(=O)[C@H](Cc1ccccc1)NC(=O)OCc1ccccc1)SC(C)C)[C@@H](O)c1nccs1 (stereo partly drawn)")
14000
>>> number("CC(C)COC(NC(=O)[C@H](Cc1ccccc1)NC(=O)OCc1ccccc1)C(=O)N[C@@H](CC1CCCCC1)[C@@H](O)c1nccs1 (stereo partly drawn) [N-[(Phenylmethoxy)carbonyl]-phenylalanyl-L-2-(2-methylpropox]")
87
>>> number("CC(C)OC(NC(=O)[C@H](Cc1ccccc1)NC(=O)OCc1ccccc1)C(=O)N[C@@H](CC1CCCCC1)[C@@H](O)c1ccccn1 (stereo partly drawn)")
24
>>> number("CC(C)C[C@H](NC(=O)C(NC(=O)[C@H](Cc1ccccc1)NC(=O)OCc1ccccc1)OC(C)C)[C@@H](O)c1nccs1 (stereo partly drawn)")
280
>>> number("CC(C)CO[C@@H](NC(=O)[C@H](Cc1ccccc1)NC(=O)OCc1ccccc1)C(=O)N[C@@H](CC1CCCCC1)[C@@H](O)c1ccccn1")
29000
>>> number("CC(C)O[C@@H](NC(=O)[C@H](Cc1ccccc1)NC(=O)OCc1ccccc1)C(=O)N[C@@H](CC1CCCCC1)[C@@H](O)c1ccccn1")
1000

* * *

- SYSTEM TESTED: human kidney renin (Homo sapiens, UniProt P00797)
- Construct: Human renin was prepared from human kidney; from tissue; host or cells: human kidney
- Sequence (P00797 67-406): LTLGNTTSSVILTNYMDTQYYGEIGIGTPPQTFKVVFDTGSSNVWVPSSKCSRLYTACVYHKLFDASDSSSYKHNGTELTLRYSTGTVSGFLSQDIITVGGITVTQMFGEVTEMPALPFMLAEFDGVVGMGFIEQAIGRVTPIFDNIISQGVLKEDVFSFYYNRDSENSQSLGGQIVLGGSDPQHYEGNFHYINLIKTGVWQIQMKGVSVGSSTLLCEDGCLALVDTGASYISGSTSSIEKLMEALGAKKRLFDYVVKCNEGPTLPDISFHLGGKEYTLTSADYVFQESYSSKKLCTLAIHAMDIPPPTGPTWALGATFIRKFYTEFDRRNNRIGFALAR
- TEST METHOD NOTES: Radioimmunoassay screen for renin inhibitors (angiotensin I generation, then quantitation by radioimmunoassay)
- Type: biochemical
- MEASUREMENT CONDITIONS: Molar Concentration 1 × 10^-5
% Renin Inhibition values by entry
OUTCOME MEASURE: % Renin Inhibition (%)

>>> number("CC(C)COC(NC(=O)[C@H](Cc1ccccc1)NC(=O)OCc1ccccc1)C(=O)N[C@H](C=O)Cc1ccccc1 (stereo partly shown)")
59
>>> number("CC(C)CO[C@H](NC(=O)[C@H](Cc1ccccc1)NC(=O)OCc1ccccc1)C(=O)N[C@H](C=O)CC(C)C")
50
>>> number("CC(C)CO[C@@H](NC(=O)[C@H](Cc1ccccc1)NC(=O)OCc1ccccc1)C(=O)N[C@@H](Cc1ccccc1)[C@@H](O)c1nccs1")
69.2
>>> number("CC(C)CO[C@H](NC(=O)[C@H](Cc1ccccc1)NC(=O)OCc1ccccc1)C(=O)N[C@@H](Cc1ccccc1)[C@@H](O)c1nccs1")
84.6
